molecular target: CYP2C9 (Homo sapiens, UniProt P11712); test: Cytochrome P450 inhibition assay 2C9; assay type: in vitro ADME
Sequence (P11712 whole entry): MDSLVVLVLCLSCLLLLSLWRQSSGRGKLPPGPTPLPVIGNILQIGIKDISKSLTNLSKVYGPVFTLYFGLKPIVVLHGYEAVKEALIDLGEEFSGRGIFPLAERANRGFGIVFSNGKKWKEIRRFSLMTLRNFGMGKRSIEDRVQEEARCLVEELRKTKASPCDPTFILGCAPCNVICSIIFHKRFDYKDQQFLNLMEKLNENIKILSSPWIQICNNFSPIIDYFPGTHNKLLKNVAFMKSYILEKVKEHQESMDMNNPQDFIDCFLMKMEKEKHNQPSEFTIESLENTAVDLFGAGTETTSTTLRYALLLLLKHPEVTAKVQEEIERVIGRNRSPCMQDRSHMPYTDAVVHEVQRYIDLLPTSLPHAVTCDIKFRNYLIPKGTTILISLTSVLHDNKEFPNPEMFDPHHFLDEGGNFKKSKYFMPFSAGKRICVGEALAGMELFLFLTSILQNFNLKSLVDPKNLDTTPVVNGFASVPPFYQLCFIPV
Reported inhibition at 10 µM values for a set of compounds

- compound structure string: "CC(=O)Nc1cccc(Nc2ncc3ccccc3n2)c1"
  measured result: "< 20%"

Moving on to another compound below.
// assay CYP2C9 (Homo sapiens, UniProt P11712), entry CC(=O)Nc1cccc(Nc2ncc3cc(-c4cn[nH]c4)ccc3n2)c1 , inhibition at 10 µM value = > 85%

====

Collected inhibition at 10 µM values appear next to each entry.
molecular target: CYP3A4 (Homo sapiens, UniProt P08684); assay: Cytochrome P450 inhibition assay 3A4; type: in vitro ADME
Sequence (P08684 whole entry): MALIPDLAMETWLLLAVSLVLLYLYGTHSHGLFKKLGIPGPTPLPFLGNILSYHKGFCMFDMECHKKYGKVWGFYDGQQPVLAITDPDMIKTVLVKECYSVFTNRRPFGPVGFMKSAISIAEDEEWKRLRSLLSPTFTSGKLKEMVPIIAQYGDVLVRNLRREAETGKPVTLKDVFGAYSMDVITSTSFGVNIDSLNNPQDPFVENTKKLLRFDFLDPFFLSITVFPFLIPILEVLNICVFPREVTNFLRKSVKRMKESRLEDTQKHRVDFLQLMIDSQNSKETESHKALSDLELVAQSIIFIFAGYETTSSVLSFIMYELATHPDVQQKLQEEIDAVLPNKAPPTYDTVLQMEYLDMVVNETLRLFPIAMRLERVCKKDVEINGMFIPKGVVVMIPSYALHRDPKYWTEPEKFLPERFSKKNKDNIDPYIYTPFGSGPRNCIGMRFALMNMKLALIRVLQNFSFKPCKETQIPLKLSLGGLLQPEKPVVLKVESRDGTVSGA

- compound structure string: "CC(=O)Nc1cccc(Nc2ncc3ccccc3n2)c1"
  inhibition at 10 µM: "< 20%"

// below: inhibition at 10 µM requested for another compound
Kindly note the recorded inhibition at 10 µM for CC(=O)Nc1cccc(Nc2ncc3cc(-c4cn[nH]c4)ccc3n2)c1 , which is > 85%
